Listed binders paired with reported kon
study system: T1, His-tagged human TIGIT (human, UniProt Q495A1 22-141)
T1 construct: SPR analyte; also called human TIGIT protein; not shown: His tag
T1 sequence: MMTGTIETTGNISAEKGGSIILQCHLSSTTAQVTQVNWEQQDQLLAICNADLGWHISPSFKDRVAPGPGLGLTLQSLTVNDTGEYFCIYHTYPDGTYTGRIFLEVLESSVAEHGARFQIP
protocol text: SPR experiment 2, IgG from HEK293 supernatant captured
Number only, in M⁻¹ s⁻¹; omit the unit.

Known results for binders:
[[record]]
binder = "humanized TIGIT-6 antibody 6VH6.M3 + 6VL1.M1 (antibody, V domains shown, Full-length IgG, tested as HEK293 supernatant) VH: QVQLVQSGAEVKKPGASVKVSCKASGYTITENTMHWVRQAPGQRLEWIGGINPNNGGTSYSQKFQGRATLTVDTSASTAYMELSSLRSEDTAVYYCTRSSYYRYDLDYWGQGTTVTVSS VL: DIQMTQSPSSLSASVGDRVTITCQASQDIKTALAWYQQKPGKAPKLLIYSASYRYTGVPSRFSGSGSGTDFTFTISSLQPEDIATYYCHQHYTTPWTFGGGTKLEIK"
readout_type = "kon"
readout_number = 320000

[[record]]
binder = "huTIGIT-6-4 (antibody, human IgG1, kappa, V domains shown, Humanized IgG; also called 6VH6.M7 + 6VL1.M1) VH: QVQLVQSGAEVKKPGASVKVSCKASGYTFTENAMHWVRQAPGQRLEWIGGINPNNAGTSYSQKFQGRATLTVDTSASTAYMELSSLRSEDTAVYYCTRSSYYRYDLDYWGQGTTVTVSS VL: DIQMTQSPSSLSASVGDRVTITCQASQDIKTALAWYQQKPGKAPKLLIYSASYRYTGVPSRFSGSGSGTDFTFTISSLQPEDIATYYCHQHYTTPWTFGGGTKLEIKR"
readout_type = "kon"
readout_number = 300000

[[record]]
binder = "huTIGIT-6-2 (antibody, human IgG1, kappa, V domains shown, Humanized IgG; also called 6VH6.M5 + 6VL1.M1) VH: QVQLVQSGAEVKKPGASVKVSCKASGYTITENTMHWVRQAPGQRLEWIGGINPNNAGTSYSQKFQGRATLTVDTSASTAYMELSSLRSEDTAVYYCTRSSYYRYDLDYWGQGTTVTVSS VL: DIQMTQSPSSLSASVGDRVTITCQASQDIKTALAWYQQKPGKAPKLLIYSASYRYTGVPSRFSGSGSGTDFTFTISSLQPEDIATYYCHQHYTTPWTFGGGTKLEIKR"
readout_type = "kon"
readout_number = 300000

[[record]]
binder = "huTIGIT-6-1 (antibody, human IgG1, kappa, V domains shown, Humanized IgG; also called 6VH6.M4 + 6VL1.M1) VH: QVQLVQSGAEVKKPGASVKVSCKASGYTITENTMHWVRQAPGQRLEWIGGINPNQGGTSYSQKFQGRATLTVDTSASTAYMELSSLRSEDTAVYYCTRSSYYRYDLDYWGQGTTVTVSS VL: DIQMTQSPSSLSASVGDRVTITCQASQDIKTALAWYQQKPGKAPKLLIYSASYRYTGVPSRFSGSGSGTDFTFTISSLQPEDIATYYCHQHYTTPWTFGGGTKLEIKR"
readout_type = "kon"
readout_number = 280000

[[record]]
binder = "TIGIT-6 chimeric antibody (antibody, human IgG1, kappa, V domains shown, also called 6VH + 6VL) VH: QVQLKQSGPELVKPGASVKISCKTSGYTITENTMHWVKQSHGKSLEWIGGINPNNGGTSYNQQFKGKATLTVDKSSSTAYMELRSLTSEDSAVYYCTRSSYYRYDLDYWGQGTTVTVSS VL: DIQMTQSHKFMSTSVGDRVSITCKASQDVKTALAWYQQKPGQSPKLLIYSASYRYTGVPDRFTGSGSGTDFTFTISSVQAEDLAVYYCHQHYTTPWTFGGGTKLEIKR"
readout_type = "kon"
readout_number = 420000


Exam item: Note kon for the binder shown: huTIGIT-6-3 (antibody, human IgG1, kappa, V domains shown, Humanized IgG; also called 6VH6.M6 + 6VL1.M1) VH: QVQLVQSGAEVKKPGASVKVSCKASGYTFTENAMHWVRQAPGQRLEWIGGINPNQGGTSYSQKFQGRATLTVDTSASTAYMELSSLRSEDTAVYYCTRSSYYRYDLDYWGQGTTVTVSS VL: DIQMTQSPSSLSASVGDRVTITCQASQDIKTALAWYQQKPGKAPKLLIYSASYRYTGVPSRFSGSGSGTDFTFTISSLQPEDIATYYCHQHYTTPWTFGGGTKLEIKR
Marked response: 270000
